The measured values listed here are drawn from patent US10294234B2.

# conditions: rat, microsomes
observationType: Rat. Pred. Cl. (L/H/kg)

INSERT INTO measurements (structure, observationtype, relationsymbol, valueobserved) VALUES
  ('COC(=O)N[C@H](C(=O)N[C@@H](Cc1ccc(C#Cc2ccc(N3C4CC3CN(C3COC3)C4)nc2)cc1)[C@@H](O)CN(Cc1c(F)cc(-c2cnn(C(F)F)c2)cc1F)NC(=O)[C@@H](NC(=O)OC)C(C)(C)C(F)(F)F)C(C)(C)C(F)(F)F', 'Rat. Pred. Cl.', '=', 0.83),
  ('COC(=O)N[C@H](C(=O)NN(Cc1c(F)cc(-c2cnn(C(F)F)c2)cc1F)C[C@H](O)[C@H](Cc1ccc(C#Cc2ccc(N3CC4CCC(C3)N4C3COC3)nc2)cc1)NC(=O)[C@@H](NC(=O)OC)C(C)(C)C(F)(F)F)C(C)(C)C', 'Rat. Pred. Cl.', '<', 0.18),
  ('COC(=O)N[C@H](C(=O)N[C@@H](Cc1ccc(C#Cc2ccc(N3CC4CCC(C3)N4C3COC3)nc2)cc1)[C@@H](O)CN(Cc1ccc(-c2ccccn2)cc1)NC(=O)[C@@H](NC(=O)OC)C(C)(C)C(F)(F)F)C(C)(C)C(F)(F)F', 'Rat. Pred. Cl.', '=', 0.19),
  ('COC(=O)N[C@H](C(=O)NN(Cc1c(F)cc(-c2ccn(C(F)F)n2)cc1F)C[C@H](O)[C@H](Cc1ccc(C#Cc2cnc(N3CC4CCC(C3)N4C3COC3)nc2)cc1)NC(=O)[C@@H](NC(=O)OC)C(C)(C)C(F)(F)F)C(C)(C)C', 'Rat. Pred. Cl.', '=', 0.22);
